Data provenance: ChEMBL document CHEMBL1201862

System: MDA-MB-231
test_summary: NCI tumour cell line growth inhibition, 48 h
Activity calls are given as the source filed them. No stated cut-off is given here; in the data, active = GI50 up to about 1.1 µM and inactive = higher.
quantity_name: GI50

Some compounds with recorded GI50:
>>> test_result("C[C@H]1C(=O)O[C@@H]2CCN3CC=C(COC(=O)[C@](C)(O)[C@@]1(C)O)[C@H]23")
"> 100 µM (inactive)"
>>> test_result("COc1ccc(C(CC(=O)c2cccs2)C(=O)c2ccc3c(c2)OCO3)cc1 (centres undefined)")
"> 100 µM (inactive)"
>>> test_result("COc1ccc(C(c2ccccc2)N2C(=O)CCC2C(=O)O)cc1OC (centres undefined)")
"> 100 µM (inactive)"
>>> test_result("Cc1ccc(OCC2OC(n3cnc4c(Cl)nc(Nc5cc(Cl)cc(Cl)c5)nc43)CC2Oc2ccc(C)cc2)cc1 (centres undefined)")
"> 100 µM (inactive)"
>>> test_result("CC1(C)OCC(C(O)C2OC(C)(C)OC2C=O)O1 (centres undefined)")
"> 100 µM (inactive)"

For each listed entry, give its GI50.
1. N=c1oc2ccc([N+](=O)[O-])cc2cc1C(=O)NCc1ccccc1
2. Cc1ccc(CC[PH](=O)CCc2ccc(C)nc2)cn1
3. CC(=O)CC1(C)OC(N)=C(C#N)C1(C#N)C#N (centres undefined)
4. O=C(NCCN1CCOCC1)c1ccc2cc(C(=O)N3CC(CCl)c4ccc([N+](=O)[O-])cc43)[nH]c2c1 (centres undefined)

["22 µM (inactive)", "> 100 µM (inactive)", "> 100 µM (inactive)", "15.5 µM (inactive)"]

---

Test system: MCF7
test_summary: NCI tumour cell line growth inhibition, 48 h
Calls of active or inactive are those of the source. No stated cut-off is given here; in the data, active = GI50 up to about 1.1 µM and inactive = higher.
quantity_name: GI50

>>> test_result("CC(C)CCC[C@@H](C)[C@H]1CC[C@H]2[C@@H]3CC[C@H]4C[C@@H](CCC=C(c5cc(Cl)c(O)c(C(=O)O)c5)c5cc(Cl)c(O)c(C(=O)O)c5)CC[C@]4(C)[C@H]3CC[C@]12C")
"> 100 µM (inactive)"

Hi there! I need GI50 for each item below, if you can.
1. C=CCN1C(=O)/C(=C/c2ccccc2)N=C1SC1OC(COC(C)=O)C(OC(C)=O)C(OC(C)=O)C1OC(C)=O (stereo not drawn)
2. COC1CC(OC2C(C)OC(OC3C(C)OC(OC4C(C)OC(O[C@H]5CC[C@@]6(C)C(=CC[C@]7(O)[C@@H]6C[C@@H](OC(C)=O)[C@@]6(C)[C@]7(O)CC[C@@]6(O)C(C)=O)C5)CC4OC)CC3OC)CC2OC)OC(C)C1O (stereo partly drawn)
3. Cc1ccc(O)c(/N=N\c2c(O)cc(S(=O)(=O)O)c3ccccc23)c1
4. O=C1Nc2ccccc2/C1=N/NC(=S)Nc1ccccc1Cl
5. C=C(CC)C(=O)c1ccc(OCC(=O)O)c(Cl)c1Cl [ETHACRYNIC ACID]

1: 28.5 µM (inactive); 2: > 25 µM (inactive); 3: 41.1 µM (inactive); 4: 3.4 µM (inactive); 5: 6.05 µM (inactive)

Return reported GI50 values for all items listed beneath this line.
1. O=S(=O)(N/C(=N\O)Nc1ccc(Cl)cc1)c1ccccc1
2. COc1c2cc([N+](=O)[O-])cc1CNC(=O)CN1CCOCCOCCN(CCOCCOCC1)CC(=O)NC2

["12.6 µM (inactive)", "> 100 µM (inactive)"]
